For each of the compounds below, state its MIC.
tested on: Streptococcus pyogenes; experiment: Minimum inhibitory concentration against Streptococcus pyogenes C 203 evaluated in vitro; format: functional; details: Streptococcus pyogenes; read-out: MIC
Give bare numbers, in µg/mL.

Examples from the recorded data:
1) N[C@H]1C(=O)NC2Cc3ccc(c(Cl)c3)Oc3cc4cc(c3O)Oc3ccc(cc3Cl)C/C3=N\C(=O)C(NC(=O)C4NC(=O)C(NC2=O)c2cc(O)cc(c2)Oc2cc1ccc2O)c1ccc(O)c(c1)-c1c(O[C@H]2O[C@H](CO)[C@@H](O)[C@@H](O)[C@@H]2O)cc(O)cc1[C@@H](C(=O)O)NC3=O (stereo partly drawn) :: 2
2) N[C@H]1C(=O)N[C@@H]2Cc3ccc(c(Cl)c3)Oc3cc4cc(c3O)Oc3ccc(cc3Cl)[C@@H](O)[C@@H]3NC(=O)[C@H](NC(=O)[C@@H]4NC(=O)[C@@H](NC2=O)c2cc(O)cc(c2)Oc2cc1ccc2O)c1ccc(O)c(c1)-c1c(O)cc(O)cc1[C@@H](C(=O)O)NC3=O :: 0.125

Next up:
Ask | Entry under review: CC(=O)N[C@@H]1[C@H](O[C@@H]2c3ccc(c(Cl)c3)Oc3cc4cc(c3O)Oc3ccc(cc3Cl)C[C@H]3NC(=O)[C@H](N)c5ccc(O)c(c5)Oc5cc(O)cc(c5)[C@H](NC3=O)C(=O)N[C@H]4C(=O)N[C@H]3C(=O)N[C@@H]2C(=O)N[C@H](C(=O)O)c2cc(O)cc(O[C@H]4O[C@H](CO)[C@@H](O)[C@@H](O)[C@@H]4O)c2-c2cc3ccc2O)O[C@@H](CO)[C@@H](O)[C@@H]1O . Reported MIC?
Reply | 0.5

====

For each of the molecules below, state its MIC.
system: Staphylococcus epidermidis; assay: Minimum inhibitory concentration against Staphylococcus epidermis ATCC 12228 evaluated in vitro; type: functional; settings: Staphylococcus epidermidis, ATCC 12228; read-out: MIC
Give bare numbers, in µg/mL.

1. N[C@H]1C(=O)NC2Cc3ccc(c(Cl)c3)Oc3cc4cc(c3O)Oc3ccc(cc3Cl)C/C3=N\C(=O)C(NC(=O)C4NC(=O)C(NC2=O)c2cc(O)cc(c2)Oc2cc1ccc2O)c1ccc(O)c(c1)-c1c(O[C@H]2O[C@H](CO)[C@@H](O)[C@@H](O)[C@@H]2O)cc(O)cc1[C@@H](C(=O)O)NC3=O (some centres not stated) :: 0.5

Next up:
Ask | Entry under review: CC(=O)N[C@@H]1[C@H](O[C@@H]2c3ccc(c(Cl)c3)Oc3cc4cc(c3O)Oc3ccc(cc3Cl)C[C@H]3NC(=O)[C@H](N)c5ccc(O)c(c5)Oc5cc(O)cc(c5)[C@H](NC3=O)C(=O)N[C@H]4C(=O)N[C@H]3C(=O)N[C@@H]2C(=O)N[C@H](C(=O)O)c2cc(O)cc(O[C@H]4O[C@H](CO)[C@@H](O)[C@@H](O)[C@@H]4O)c2-c2cc3ccc2O)O[C@@H](CO)[C@@H](O)[C@@H]1O . Reported MIC?
Reply | 0.25

====

system: Streptococcus pneumoniae; experiment: Minimum inhibitory concentration against Streptococcus pneumoniae UC 41 evaluated in vitro; assay type: functional; settings: Streptococcus pneumoniae; read-out: MIC
For each of the compounds below, state its MIC.
Give bare numbers, in µg/mL.

1) CC(=O)N[C@@H]1[C@H](O[C@@H]2c3ccc(c(Cl)c3)Oc3cc4cc(c3O)Oc3ccc(cc3Cl)C[C@H]3NC(=O)[C@H](N)c5ccc(O)c(c5)Oc5cc(O)cc(c5)[C@H](NC3=O)C(=O)N[C@H]4C(=O)N[C@H]3C(=O)N[C@@H]2C(=O)N[C@H](C(=O)O)c2cc(O)cc(O[C@H]4O[C@H](CO)[C@@H](O)[C@@H](O)[C@@H]4O)c2-c2cc3ccc2O)O[C@@H](CO)[C@@H](O)[C@@H]1O :: 0.5

Ask | Entry under review: CCCCC/C=C/CCC(=O)N[C@@H]1[C@H](Oc2c3cc4cc2Oc2ccc(cc2Cl)[C@@H](O[C@@H]2O[C@@H](CO)[C@@H](O)[C@H](O)[C@@H]2NC(C)=O)[C@@H]2NC(=O)[C@H](NC(=O)[C@@H]4NC(=O)[C@H]4NC(=O)[C@@H](Cc5ccc(c(Cl)c5)O3)NC(=O)[C@H](N)c3ccc(O)c(c3)Oc3cc(O)cc4c3)c3ccc(O)c(c3)-c3c(O[C@H]4O[C@H](CO)[C@@H](O)[C@@H](O)[C@@H]4O)cc(O)cc3[C@@H](C(=O)O)NC2=O)O[C@@H](CO)[C@@H](O)[C@@H]1O . Reported MIC?
Reply | 0.063

====

For each of the compounds below, state its MIC.
tested on: Staphylococcus aureus; assay: Minimum inhibitory concentration against Staphylococcus aureus Tour evaluated in vitro; assay type: functional; details: Staphylococcus aureus; read-out: MIC
Numbers only, in mg/L.

1. N[C@H]1C(=O)NC2Cc3ccc(c(Cl)c3)Oc3cc4cc(c3O)Oc3ccc(cc3Cl)C/C3=N\C(=O)C(NC(=O)C4NC(=O)C(NC2=O)c2cc(O)cc(c2)Oc2cc1ccc2O)c1ccc(O)c(c1)-c1c(O[C@H]2O[C@H](CO)[C@@H](O)[C@@H](O)[C@@H]2O)cc(O)cc1[C@@H](C(=O)O)NC3=O (stereo not given in full) :: 0.25
2. CC(=O)N[C@@H]1[C@H](O[C@@H]2c3ccc(c(Cl)c3)Oc3cc4cc(c3O)Oc3ccc(cc3Cl)C[C@H]3NC(=O)[C@H](N)c5ccc(O)c(c5)Oc5cc(O)cc(c5)[C@H](NC3=O)C(=O)N[C@H]4C(=O)N[C@H]3C(=O)N[C@@H]2C(=O)N[C@H](C(=O)O)c2cc(O)cc(O[C@H]4O[C@H](CO)[C@@H](O)[C@@H](O)[C@@H]4O)c2-c2cc3ccc2O)O[C@@H](CO)[C@@H](O)[C@@H]1O :: 0.25
3. CC(=O)N[C@@H]1[C@H](O[C@@H]2c3ccc(c(Cl)c3)Oc3cc4cc(c3O)Oc3ccc(cc3Cl)C[C@H]3NC(=O)[C@H](N)c5ccc(O)c(c5)Oc5cc(O)cc(c5)[C@H](NC3=O)C(=O)N[C@H]4C(=O)N[C@H]3C(=O)N[C@@H]2C(=O)N[C@H](C(=O)O)c2cc(O)cc(O)c2-c2cc3ccc2O)O[C@@H](CO)[C@@H](O)[C@@H]1O :: 0.5

// each listed compound needs a value for MIC
1. N[C@H]1C(=O)NC2Cc3ccc(c(Cl)c3)Oc3cc4cc(c3O)Oc3ccc(cc3Cl)C/C3=N\C(=O)C(NC(=O)C4NC(=O)C(NC2=O)c2cc(O)cc(c2)Oc2cc1ccc2O)c1ccc(O)c(c1)-c1c(O)cc(O)cc1[C@@H](C(=O)O)NC3=O (stereo not given in full)
2. CCCCC/C=C/CCC(=O)N[C@@H]1[C@H](Oc2c3cc4cc2Oc2ccc(cc2Cl)[C@@H](O[C@@H]2O[C@@H](CO)[C@@H](O)[C@H](O)[C@@H]2NC(C)=O)[C@@H]2NC(=O)[C@H](NC(=O)[C@@H]4NC(=O)[C@H]4NC(=O)[C@@H](Cc5ccc(c(Cl)c5)O3)NC(=O)[C@H](N)c3ccc(O)c(c3)Oc3cc(O)cc4c3)c3ccc(O)c(c3)-c3c(O[C@H]4O[C@H](CO)[C@@H](O)[C@@H](O)[C@@H]4O)cc(O)cc3[C@@H](C(=O)O)NC2=O)O[C@@H](CO)[C@@H](O)[C@@H]1O

Reply |
0.25
0.125

====

experiment: Association constant of compound was evaluated at pH 9; assay type: ADME
recorded metric: Ka (M⁻¹)
Answers are plain numbers, in M⁻¹.

1) N[C@H]1C(=O)NC2Cc3ccc(c(Cl)c3)Oc3cc4cc(c3O)Oc3ccc(cc3Cl)C/C3=N\C(=O)C(NC(=O)C4NC(=O)C(NC2=O)c2cc(O)cc(c2)Oc2cc1ccc2O)c1ccc(O)c(c1)-c1c(O[C@H]2O[C@H](CO)[C@@H](O)[C@@H](O)[C@@H]2O)cc(O)cc1[C@@H](C(=O)O)NC3=O (stereo partly drawn) :: 61000

Ask | Entry under review: N[C@H]1C(=O)N[C@@H]2Cc3ccc(c(Cl)c3)Oc3cc4cc(c3O)Oc3ccc(cc3Cl)[C@@H](O)[C@@H]3NC(=O)[C@H](NC(=O)[C@@H]4NC(=O)[C@@H](NC2=O)c2cc(O)cc(c2)Oc2cc1ccc2O)c1ccc(O)c(c1)-c1c(O)cc(O)cc1[C@@H](C(=O)O)NC3=O [TEICOPLANIN AGLYCON] . Reported Ka?
Reply | 30000

====

tested on: Streptococcus pneumoniae; test: Minimum inhibitory concentration against Streptococcus pneumoniae UC 41 evaluated in vitro; type: functional; details: Streptococcus pneumoniae; read-out: MIC
Values of MIC strictly less than 1 µg/mL map to yes (1), and values of at least 1 µg/mL map to no (0).

1. N[C@H]1C(=O)NC2Cc3ccc(c(Cl)c3)Oc3cc4cc(c3O)Oc3ccc(cc3Cl)C/C3=N\C(=O)C(NC(=O)C4NC(=O)C(NC2=O)c2cc(O)cc(c2)Oc2cc1ccc2O)c1ccc(O)c(c1)-c1c(O[C@H]2O[C@H](CO)[C@@H](O)[C@@H](O)[C@@H]2O)cc(O)cc1[C@@H](C(=O)O)NC3=O (stereo partly specified) :: no (0)
2. CCCCC/C=C/CCC(=O)N[C@@H]1[C@H](Oc2c3cc4cc2Oc2ccc(cc2Cl)CC2NC(=O)[C@H](N)c5ccc(O)c(c5)Oc5cc(O)cc(c5)C(NC2=O)C(=O)NC4C(=O)NC2C(=O)/N=C(\Cc4ccc(c(Cl)c4)O3)C(=O)N[C@H](C(=O)O)c3cc(O)cc(O[C@H]4O[C@H](CO)[C@@H](O)[C@@H](O)[C@@H]4O)c3-c3cc2ccc3O)O[C@@H](CO)[C@@H](O)[C@@H]1O (stereo partly specified) :: yes (1)
3. N[C@H]1C(=O)N[C@@H]2Cc3ccc(c(Cl)c3)Oc3cc4cc(c3O)Oc3ccc(cc3Cl)[C@@H](O)[C@@H]3NC(=O)[C@H](NC(=O)[C@@H]4NC(=O)[C@@H](NC2=O)c2cc(O)cc(c2)Oc2cc1ccc2O)c1ccc(O)c(c1)-c1c(O)cc(O)cc1[C@@H](C(=O)O)NC3=O :: yes (1)

Then there is this compound:
Ask | Determine whether this compound shows MIC lower than 1 µg/mL (ties excluded): N[C@H]1C(=O)NC2Cc3ccc(c(Cl)c3)Oc3cc4cc(c3O)Oc3ccc(cc3Cl)/C=C3\NC(=O)C(NC(=O)C4NC(=O)C(NC2=O)c2cc(O)cc(c2)Oc2cc1ccc2O)c1ccc(O)c(c1)-c1c(O)cc(O)cc1[C@@H](C(=O)O)NC3=O (stereo in doubt; 5)
Reply | no (0)

Where do these numbers come from? They come from ChEMBL document CHEMBL1124656.
